Values from patent US9751840B2

Could you please report measured AUC(0-t) for the items listed next?
Test: In vivo pharmacokinetic test
Parameters: species or system SD rats
Conditions: SD, rat, plasma, po; rats, p.o. 100 mg/kg
Answers are plain numbers, in ng·h/mL.

Compound	AUC(0-t) (ng·h/mL)
CON=C1CN(c2nc3c(cc2F)c(=O)c(C(=O)O)cn3C2CC2)C[C@@]1(C)CN.Cl [Hydrochloride (Comparative Example 3)]	44400

# next compound below
Exercise: What does the record list as AUC(0-t) for CO/N=C1/CN(c2nc3c(cc2F)c(=O)c(C(=O)O)cn3C2CC2)C[C@@]1(C)CN [L-aspartate (Example 1)] ?
Solution: 52700

###

Experiment: In vivo tissue distribution test
Design: species or system ICR mice
Settings: ICR, mouse, kidney, po, 100 mg/kg; read-out: P ratio Kidney
For each of the compounds below, state its Kp.
Answers are plain numbers.

Compound	Kp
CO/N=C1/CN(c2nc3c(cc2F)c(=O)c(C(=O)O)cn3C2CC2)C[C@@]1(C)CN [L-aspartate (Example 1)]	7.44

With those in mind, consider the next compound.
Exercise: Return reported Kp; argument: CON=C1CN(c2nc3c(cc2F)c(=O)c(C(=O)O)cn3C2CC2)C[C@@]1(C)CN.Cl [Hydrochloride (Comparative Example 3)]
Solution: 6.59

###

I'd appreciate it if you could supply concentration at 2 hr values for the items below.
Assay: In vivo tissue distribution test
Set-up: species or system ICR mice
Conditions: mouse, brain, po; ICR mice, p.o. 100 mg/kg, 2 hr; read-out: Brain concentration
Numbers only, in ng/g.

Molecule	Units text	concentration at 2 hr
CO/N=C1/CN(c2nc3c(cc2F)c(=O)c(C(=O)O)cn3C2CC2)C[C@@]1(C)CN [L-aspartate (Example 1)]	ng/g	2570

Below: the item to evaluate.
Exercise: May I ask what concentration at 2 hr has been recorded for CON=C1CN(c2nc3c(cc2F)c(=O)c(C(=O)O)cn3C2CC2)C[C@@]1(C)CN.Cl [Hydrochloride (Comparative Example 3)] ?
Solution: 3180

###

Give concentration at 1.5 h for every item shown.
Test: In vivo tissue distribution test
Parameters: species or system ICR mice
Conditions: mouse, brain, po; ICR mice, p.o. 100 mg/kg, 1.5 hr; read-out: Brain concentration
Answers are plain numbers, in ng/g.

Molecule	concentration at 1.5 h, ng/g
CO/N=C1/CN(c2nc3c(cc2F)c(=O)c(C(=O)O)cn3C2CC2)C[C@@]1(C)CN [L-aspartate (Example 1)]	2340

Note: attention shifts to another entry.
Exercise: Recorded concentration at 1.5 h for CON=C1CN(c2nc3c(cc2F)c(=O)c(C(=O)O)cn3C2CC2)C[C@@]1(C)CN.Cl [Hydrochloride (Comparative Example 3)] , please?
Solution: 2720

###

Task for the reader: assign each of the following molecules its reported Kp.
Test: In vivo tissue distribution test
Set-up: species or system ICR mice
Settings: ICR, mouse, spleen, po, 100 mg/kg; read-out: P ratio Spleen
Give bare numbers.

Molecule	Kp
CON=C1CN(c2nc3c(cc2F)c(=O)c(C(=O)O)cn3C2CC2)C[C@@]1(C)CN.Cl [Hydrochloride (Comparative Example 3)]	8.66

Please turn your attention to the following entry.
Exercise: What does the record list as Kp for CO/N=C1/CN(c2nc3c(cc2F)c(=O)c(C(=O)O)cn3C2CC2)C[C@@]1(C)CN [L-aspartate (Example 1)] ?
Solution: 8.82

###

Experiment: In vivo tissue distribution test
Parameters: species or system ICR mice
Conditions: mouse, spleen, po; ICR mice, p.o. 100 mg/kg, 8 hr; read-out: Spleen concentration
Observation type: concentration at 8 h (ng/g)
Give bare numbers, in ng/g.

Compound	concentration at 8 h [ng/g]
CO/N=C1/CN(c2nc3c(cc2F)c(=O)c(C(=O)O)cn3C2CC2)C[C@@]1(C)CN [L-aspartate (Example 1)]	23400

Moving on to the next compound.
Exercise: Look up concentration at 8 h for this compound: CON=C1CN(c2nc3c(cc2F)c(=O)c(C(=O)O)cn3C2CC2)C[C@@]1(C)CN.Cl [Hydrochloride (Comparative Example 3)]
Solution: 21500

###

Assay: Stability test in distilled water
Format: physicochemical
Details: 30 mg in 100 ml distilled water, initial
Could you please report measured Content (%) Initial for the items listed next?
Give bare numbers, in %.

// solved cases for Content (%) Initial follow
Compound	Content (%) Initial
CON=C1CN(c2nc3c(cc2F)c(=O)c(C(=O)O)cn3C2CC2)C[C@@]1(C)CN.CS(=O)(=O)O [Methanesulfonate (Comparative Example 4)]	96.4
CON=C1CN(c2nc3c(cc2F)c(=O)c(C(=O)O)cn3C2CC2)C[C@@]1(C)CN.Cl [Hydrochloride (Comparative Example 3)]	97.9
CON=C1CN(c2nc3c(cc2F)c(=O)c(C(=O)O)cn3C2CC2)C[C@@]1(C)CN.Cc1ccc(S(=O)(=O)O)cc1	98.6
CO/N=C1/CN(c2nc3c(cc2F)c(=O)c(C(=O)O)cn3C2CC2)C[C@@]1(C)CN [L-aspartate (Example 1)]	98.1
CON=C1CN(c2nc3c(cc2F)c(=O)c(C(=O)O)cn3C2CC2)C[C@@]1(C)CN.O=CO [Formate (Comparative Example 5)]	89.7

Hi there! I need Content (%) Initial for each item below, if you can.
1. CON=C1CN(c2nc3c(cc2F)c(=O)c(C(=O)O)cn3C2CC2)C[C@@]1(C)CN [Free form (Comparative Example 2)]
2. CON=C1CN(c2nc3c(cc2F)c(=O)c(C(=O)O)cn3C2CC2)C[C@@]1(C)CN.O=P(O)(O)O [Phosphate (Comparative Example 6)]

Solution:
1: 97.3; 2: 98.1

###

Assay: In vivo tissue distribution test
Parameters: species or system ICR mice
Conditions: mouse, thymus, po; ICR mice, p.o. 100 mg/kg, 1.5 hr; read-out: Thymus concentration
Assign concentration at 1.5 hr to each entry below.
One number for each entry, in ng/g.

Compound	Units text	Data value
CO/N=C1/CN(c2nc3c(cc2F)c(=O)c(C(=O)O)cn3C2CC2)C[C@@]1(C)CN [L-aspartate (Example 1)]	ng/g	48800

// moving on: another record for concentration at 1.5 hr
Exercise: Form field: reported concentration at 1.5 hr of CON=C1CN(c2nc3c(cc2F)c(=O)c(C(=O)O)cn3C2CC2)C[C@@]1(C)CN.Cl [Hydrochloride (Comparative Example 3)]
Solution: 60800

###

Hi there, I'd appreciate the recorded concentration at 3 h for every entry that follows.
Experiment: In vivo tissue distribution test
Design: species or system ICR mice
Conditions: mouse, liver, po; ICR mice, p.o. 100 mg/kg, 3 hr; read-out: Liver concentration
Answers are plain numbers, in ng/g.

Compound	concentration at 3 h / ng/g
CON=C1CN(c2nc3c(cc2F)c(=O)c(C(=O)O)cn3C2CC2)C[C@@]1(C)CN.Cl [Hydrochloride (Comparative Example 3)]	69000

Now for a further compound.
Exercise: Give its concentration at 3 h value. Item: CO/N=C1/CN(c2nc3c(cc2F)c(=O)c(C(=O)O)cn3C2CC2)C[C@@]1(C)CN [L-aspartate (Example 1)]
Solution: 70800

###

Assign concentration at 0.5 h to each entry below.
Test: In vivo tissue distribution test
Set-up: species or system ICR mice
Settings: mouse, spleen, po; ICR mice, p.o. 100 mg/kg, 0.5 hr; read-out: Spleen concentration
Numbers only, in ng/g.

Compound	concentration at 0.5 h / ng/g
CO/N=C1/CN(c2nc3c(cc2F)c(=O)c(C(=O)O)cn3C2CC2)C[C@@]1(C)CN [L-aspartate (Example 1)]	91600

Exercise: Which value of concentration at 0.5 h has been reported for CON=C1CN(c2nc3c(cc2F)c(=O)c(C(=O)O)cn3C2CC2)C[C@@]1(C)CN.Cl [Hydrochloride (Comparative Example 3)] in the records?
Solution: 102000

###

Please provide measured concentration at 0.5 h for the entries that follow.
Experiment: In vivo tissue distribution test
Parameters: species or system ICR mice
Settings: mouse, liver, po; ICR mice, p.o. 100 mg/kg, 0.5 hr; read-out: Liver concentration
One number for each entry, in ng/g.

Compound	concentration at 0.5 h [ng/g]
CON=C1CN(c2nc3c(cc2F)c(=O)c(C(=O)O)cn3C2CC2)C[C@@]1(C)CN.Cl [Hydrochloride (Comparative Example 3)]	161000

Next:
Exercise: Could you share which concentration at 0.5 h value was measured for CO/N=C1/CN(c2nc3c(cc2F)c(=O)c(C(=O)O)cn3C2CC2)C[C@@]1(C)CN [L-aspartate (Example 1)] ?
Solution: 128000

###

Assay: In vivo tissue distribution test
Set-up: species or system ICR mice
Conditions: mouse, muscle, po; ICR mice, p.o. 100 mg/kg, 5 hr; read-out: Muscle concentration
Observation type: concentration at 5 h (ng/g)
Answers are plain numbers, in ng/g.

Molecule	Units text	concentration at 5 h
CO/N=C1/CN(c2nc3c(cc2F)c(=O)c(C(=O)O)cn3C2CC2)C[C@@]1(C)CN [L-aspartate (Example 1)]	ng/g	18000

Switching to the query record.
Exercise: Please report the recorded concentration at 5 h for CON=C1CN(c2nc3c(cc2F)c(=O)c(C(=O)O)cn3C2CC2)C[C@@]1(C)CN.Cl [Hydrochloride (Comparative Example 3)] .
Solution: 18400
